All figures here come from patent US5985922A.

# Assay Overview: Test for a Solubility (oil solvents, 1% by weight)
# Type: physicochemical
# Experimental Setup: olive oil
# Description: The solubility in the solvent shown in Table 2 when the concentration was 1% by weight was evaluated.

[
  {
    "Compound": "CCCCCCCCCCCCOC(=O)[C@H](C)NCc1ccccc1O [Synthesis Example 1]",
    "Solubility in olive oil": "soluble"
  },
  {
    "Compound": "O=C(O)[C@H](Cc1ccccc1)NCc1ccccc1O [N-(2-hydroxybenzyl)-L-phenylalanine, reference compound]",
    "Solubility in olive oil": "insoluble"
  },
  {
    "Compound": "C[C@H](NCc1ccccc1O)C(=O)O [N-(2-hydroxybenzyl)-L-alanine, reference compound]",
    "Solubility in olive oil": "insoluble"
  },
  {
    "Compound": "CCCCCCCCCCCCOC(=O)CNCc1ccccc1O [Synthesis Example 3, N-(2-hydroxybenzyl)glycine lauryl ester]",
    "Solubility in olive oil": "soluble"
  }
]
